Hello, the source for this data is patent US20210403538A1, in case you need it.

Provide the recorded EC50 for the entries that follow.
# Target Of Assay: EBOV GP [change] (Zaire ebolavirus (EBOV), strain Makona)
# Experiment Notes: ELISA, coated recombinant GP ΔTM
Answer with a number only, understood to be in µg/mL.

IN: Fill in the blank: the reported EC50 of EBOV-446 (antibody, V domains shown) VH: QVQLVQSGAEVKKPGASVKVSCKASGYTFTDYYIYWVRQAPGQGLEWMGWLNPNSGGTDYAQKFQGRVTMTRDTSIRTAYMDLSRLRSDDTAVYYCARGRRHGAYVDWGQGTLVTVSS VL: DIQLTQSPSFLSASVGDRVTITCRASQGISTYLAWYQQKPGKAPNLLIYDTSTLQSGVPSRFSGSASGTEFTLTISSLQPEDFATYYCQQLNFYLGGLTFGQGTRLEIK is ____.
OUT: 0.009

IN: Fill in the blank: the reported EC50 of EBOV-524 (antibody, V domains shown) VH: QVQLVESGGGVVQPGGSLRLSCAASGFKFSTYGMNWVRQVPGQGLEWVSFVRHDGSNKYYSDSVKGRFTIFRDNSNNKLYLQMNNLRAEDTAVYYCAKDVLDCSRADCFIYYYYMDVWGKGTLVTVSS VL: DIQMTQSPSSVSASPGDRVTITCRASQTISGWLAWYQQKPGKAPKLLIYDVSTLQSGVPSRFSGGGSGTEFTFTISSLQPEDYATYFCQQGNRIPLSFGGGTRVEIK is ____.
OUT: 0.123

IN: Fill in the blank: the reported EC50 of EBOV-434 (antibody, V domains shown) VH: QVQLVQSGAEVKKPGASVKVSCKASGYTFTGYYMFWVRQAPGQGLEWMGWINPNSGGTNYTQKFQGRVTMTRDTSISTAYMELSRLKSDDTAVYYCARDSGELLFVGSDVWGQGTLVTVSS VL: DIQMTQSPSSVSASVGDRVTITCRASLDISYWLAWYQQKPGKAPKLLIYAASNLQSGVPSRFSGSGSGTDFTLTISSLQPEDFATYYCQQANSFPQTFGQGTRLELK is ____.
OUT: 0.304

IN: Fill in the blank: the reported EC50 of EBOV-520 (antibody, V domains shown) VH: QVQLQESGPGLGKPSETLSLSCTVSGASIRGYFWNWIRQPPGKGLEWIGYIHSTGSTNYNPSLKSRVTISVDTSKNQVSLNVNSVTAADTAVYFCARGAWNVATVYYYYGMDVWGQGTLVTVSS VL: EIVLTQSPGTLSLSPGERATLSCRASQSVSSSYFAWYQQKPGQAPRLLISGTSTRAPGIPDRFSGSGSGTDFTLTISRLEPEDFAVYFCQQYGNSLYTFGQGTKLEIK is ____.
OUT: 0.012

IN: Fill in the blank: the reported EC50 of EBOV-442 (antibody, V domains shown) VH: EVQLVESGGGLVKPGGSLRLSCTGSGGTGFTFKYAGMSWVRQAPGKGPEWIGRIKSRIDGGTTDYAAPVKDRFIVSRDDSRNTLYLQMNSLKTEDTAVYYCATGSGKGPSASFGESYYYYDFINVWGKGTTVTVSS VL: ESVLTQSPGTLSLSPGERATLSCRASQSISRKYLAWYQQKPGQAPRLLIYGSSSRATGIPDRFSGSGSGTDFTLTISRLEPEDFAVYYCHQYESSPWTFGQGTKVEIK is ____.
OUT: 0.001
